Hello, the source for this data is PubChem BioAssay (NCATS), in case you need it.

method-notes: Cell Viability - LYMP2-015 (AID 971);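 further: cells exposed to compound for 24 h; nearly all actives have a fitted effect of over 55% in size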
measurement-parameters: LYMP2-015 lymphoblastoid cell viability; series mostly up to 92.2 µM
Results filed as inconclusive are left out. The source made the active and inactive calls. The call rests on the fitted dose curve; in most records, active means well fitted cell-killing curve with a large enough effect; inconclusive means small, poorly fitted or top-dose-only effect; inactive means flat fitted curve, though single readings scatter.
Possible outcomes: Yes (active), No (inactive)

CS(=O)(=O)OCCCCOS(C)(=O)=O ... No
Nc1ccc(S(N)(=O)=O)cc1 ... No
CCCCC(CC)COC(=O)C(C#N)=C(c1ccccc1)c1ccccc1 (configuration not stated) ... No
CN(C)c1ccc2nc3ccc(=[N+](C)C)cc-3sc2c1 ... Yes
Cc1ccc(C)c(OCCCC(C)(C)C(=O)O)c1 ... No
Cc1cc(O)c2c(c1)C(=O)c1cc(O)cc(O)c1C2=O ... No
COc1c2occc2cc2ccc(=O)oc12 ... No

====

experimental-target: Cytochrome P450 2C9 (Homo sapiens) (UniProt P11712)
Sequence (P11712 whole entry, looked up): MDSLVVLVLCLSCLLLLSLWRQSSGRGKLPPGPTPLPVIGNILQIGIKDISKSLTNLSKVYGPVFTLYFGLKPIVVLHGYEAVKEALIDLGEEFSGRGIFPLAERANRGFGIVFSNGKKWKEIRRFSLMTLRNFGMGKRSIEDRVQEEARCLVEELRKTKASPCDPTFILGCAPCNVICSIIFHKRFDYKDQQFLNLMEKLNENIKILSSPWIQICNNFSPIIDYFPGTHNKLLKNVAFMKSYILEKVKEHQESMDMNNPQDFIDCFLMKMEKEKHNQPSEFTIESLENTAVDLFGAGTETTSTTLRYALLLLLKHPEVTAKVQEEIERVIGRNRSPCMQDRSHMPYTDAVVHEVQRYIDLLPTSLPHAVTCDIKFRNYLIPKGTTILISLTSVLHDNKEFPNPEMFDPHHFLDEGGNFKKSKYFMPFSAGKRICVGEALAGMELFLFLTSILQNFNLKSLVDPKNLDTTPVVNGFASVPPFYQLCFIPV
method-notes: qHTS Assay for Inhibitors and Substrates of Cytochrome P450 2C9 (AID 883); further: nearly all actives have a fitted effect of over 60% in size; further: potency means the concentration at half of the fitted maximal effect
measurement-parameters: recombinant CYP2C9, luciferin-H luminescence, 60 min; series mostly up to 57.1 µM
Results filed as inconclusive are left out. Calls of active or inactive are those of the source. Calls follow the shape of the dose curve; as a rule, active = well fitted inhibition curve with a large enough effect; inconclusive = small, poorly fitted or top-dose-only effect; inactive = no such curve, though single readings can be large or run the other way.
readout: Potency

C[C@H](Cc1ccc(O)c(O)c1)[C@@H](C)Cc1ccc(O)c(O)c1 ... 1580 nM (active)
CC(=O)Nc1ccc(O)cc1 ... inactive
O=C(CCc1ccc(O)cc1)c1c(O)cc(O)cc1O ... 2510 nM (active)
Cc1ccc(C)c(OCCCC(C)(C)C(=O)O)c1 ... 6310 nM (active)
O=c1c(O)c(-c2ccc(O)cc2O)oc2cc(O)cc(O)c12 ... 10000 nM (active)
Cc1cc(=O)oc2cc(O)ccc12 ... inactive
CCc1nc(N)nc(N)c1-c1ccc(Cl)cc1 ... inactive
O=C1c2ccccc2-c2n[nH]c3cccc1c23 ... inactive
CC1(C)C(=O)N(CCN2CCC(C(=O)c3ccc(F)cc3)CC2)c2ccccc21 ... inactive
O=C(NCCO[N+](=O)[O-])c1cccnc1 ... 2000 nM (active)

====

method-notes: Cell Viability qHTS for small molecule stabilizers of the endoplasmic reticulum resident proteome (AID 1508629);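 further: human SH-SY5Y neuroblastoma cells carrying the GLuc-SERCaMP reporter; compound exposure about 46 h in total before the viability read; on the % scale 0 is the no-effect control and ±100 the full control effect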
measurement-parameters: cell viability counter-screen, 100 nM thapsigargin for final 4 h
Inconclusive results are not listed.
readout: max response (%)

C[C@H](Cc1ccc(O)c(O)c1)[C@@H](C)Cc1ccc(O)c(O)c1 ... -16.2
CN(C)c1ccc(O)c2c1C[C@H]1C[C@H]3[C@H](N(C)C)C(=O)C(C(N)=O)=C(O)[C@@]3(O)C(=O)C1=C2O ... 11.6
Cc1cccc(C)c1OCC(=O)N[C@@H](Cc1ccccc1)[C@@H](O)C[C@H](Cc1ccccc1)NC(=O)[C@H](C(C)C)N1CCCNC1=O ... -5.9
O=c1cc(N2CCOCC2)oc2c(-c3ccccc3)cccc12 ... -28.5

====

Tested on: HEK293
method-notes: Cytotoxic Profiling of Annotated Libraries Using Quantitative High-Throughput Screening (AID 1296008); further: nearly all actives have a fitted effect of over 60% in size
measurement-parameters: Five cell lines viability, CellTiter-Glo ATP luminescence, 48-72 h
Inconclusive results are not listed. Calls of active or inactive are those of the source. The call rests on the fitted dose curve; in most records, active means well fitted inhibition curve with a large enough effect; inconclusive means small, poorly fitted or top-dose-only effect; inactive means flat fitted curve, though single readings scatter.
Possible outcomes: yes for active, no for inactive

O=C1CCc2ccc(OCCCCN3CCN(c4cccc(Cl)c4Cl)CC3)cc2N1 ... yes
COc1ccc2cc([C@H](C)C(=O)O)ccc2c1 ... no
CNC[C@H](O)c1ccc(O)c(O)c1 ... no
CNC[C@@H](O)[C@@H](O)[C@H](O)[C@H](O)CO ... no
CC1=C(C(=O)O)N2C(=O)[C@@H](NC(=O)[C@H](N)C3=CCC=CC3)[C@H]2SC1 ... no
CC(=O)NC[C@H]1CN(c2ccc(N3CCOCC3)c(F)c2)C(=O)O1 ... yes
Cc1cc(=O)oc2cc(O)ccc12 ... no
COc1c(O)cc2c(c1O)[C@@H]1O[C@H](CO)[C@@H](O)[C@H](O)[C@H]1OC2=O ... no
Cc1cc(C2CCCCC2)n(O)c(=O)c1 ... yes
Oc1ccc(-c2nc(-c3ccc(F)cc3)c(-c3ccncc3)[nH]2)cc1 ... yes
COc1cc2c(N3CCN(C(=O)Nc4ccc(OC(C)C)cc4)CC3)ncnc2cc1OCCCN1CCCCC1 ... yes

====

method-notes: Cell Viability - LYMP2-026 (AID 989);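 further: cells exposed to compound for 24 h at 37 °C; nearly all actives have a fitted effect of over 50% in size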
measurement-parameters: LYMP2-026 lymphoblastoid cell viability, qHTS; series mostly up to 92.2 µM
Results filed as inconclusive are left out. The source made the active and inactive calls. Calls come from the whole dose curve; as a rule, active = well fitted cell-killing curve with a large enough effect; inconclusive = small, poorly fitted or top-dose-only effect; inactive = flat fitted curve, though single readings scatter.
Possible outcomes: 1 = active, -1 = inactive

CCc1nc(N)nc(N)c1-c1ccc(Cl)cc1 ... -1
Nc1ccc(S(N)(=O)=O)cc1 ... -1
CN(C)c1ccc2nc3ccc(=[N+](C)C)cc-3sc2c1 ... 1

====

System: MCC-26
method-notes: qHTS assay to identify novel small-molecules to repurpose for Merkel cell carcinoma treatment (AID 1296009); further: nearly all actives have a fitted effect of over 60% in size
measurement-parameters: MCC and control cell lines, CellTiter-Glo viability, 72 h; series mostly up to 46 µM
Results filed as inconclusive are left out. The source made the active and inactive calls. Calls come from the whole dose curve; as a rule, active = well fitted inhibition curve with a large enough effect; inconclusive = small, poorly fitted or top-dose-only effect; inactive = flat fitted curve, though single readings scatter.
Possible outcomes: YES for active, NO for inactive

Nc1cccc2c1CN(C1CCC(=O)NC1=O)C2=O (centres undefined) ... NO
CCCCCCCCOc1ccccc1C(=O)Nc1ccc(C(=O)OCC[N+](C)(CC)CC)cc1 ... NO
CC(C)c1ccc2oc3nc(N)c(C(=O)O)cc3c(=O)c2c1 ... NO
CNC[C@@H](O)[C@@H](O)[C@H](O)[C@H](O)CO ... NO
O=C(O)c1cn(-c2ccc(F)cc2)c2cc(N3CCNCC3)c(F)cc2c1=O ... NO
CCc1nc(N)nc(N)c1-c1ccc(Cl)cc1 ... NO
Cc1nccn1CC1CCc2c(c3ccccc3n2C)C1=O (centres undefined) ... NO
O=C(CCc1ccc(O)cc1)c1c(O)cc(O)cc1O ... NO
O=Nc1c(-c2c(O)[nH]c3cc(Br)ccc23)[nH]c2ccccc12 ... YES
CCCCC(CC)COC(=O)C(C#N)=C(c1ccccc1)c1ccccc1 (centres undefined) ... NO
O=C(O)c1cccc(-c2noc(-c3ccccc3F)n2)c1 ... NO
NNc1nncc2ccccc12 ... NO
Nc1nc(N)c(N=O)c(OCC2CCCCC2)n1 ... NO
CCCc1cc(=O)[nH]c(=S)[nH]1 ... NO
O=C(NCCO[N+](=O)[O-])c1cccnc1 ... NO
Oc1ccc2ccccc2c1SSc1c(O)ccc2ccccc12 ... NO
Oc1ccc(-c2nc(-c3ccc(F)cc3)c(-c3ccncc3)[nH]2)cc1 ... NO
O=C1CCc2ccc(OCCCCN3CCN(c4cccc(Cl)c4Cl)CC3)cc2N1 ... NO
CCOC(=O)c1c(C)n(C)c2ccc(O)cc12 ... NO
Nc1nc(Cl)nc2c1ncn2[C@H]1C[C@H](O)[C@@H](CO)O1 ... NO
CN(C)C(=O)COC(=O)Cc1ccc(OC(=O)c2ccc(N=C(N)N)cc2)cc1 ... NO
C[C@]12CCC(=O)C=C1CC[C@@H]1[C@H]2[C@@H](O)C[C@@]2(C)[C@H]1CC[C@]2(O)C(=O)CO ... NO
Nc1nc(OCc2ccccc2)c2[nH]cnc2n1 ... NO
CCOC(=O)C1=C[C@@H](OC(CC)CC)[C@H](NC(C)=O)[C@@H](N)C1 ... NO
O=C1c2c(O)cc(O)cc2OC(c2ccc(O)c(O)c2)C1O (centres undefined) ... NO
CNC[C@H](O)c1ccc(O)c(O)c1 ... NO
CN(C)c1ccc2nc3ccc(=[N+](C)C)cc-3sc2c1 ... YES
COc1cc(C(C)=O)ccc1OCCCN1CCC(c2noc3cc(F)ccc23)CC1 ... NO
OC(CN1CCN(c2cccc(Cl)c2)CC1)C(c1ccccc1)c1ccccc1 (centres undefined) ... NO
Nc1ncn([C@H]2C[C@H](O)[C@@H](CO)O2)c(=O)n1 ... NO
O=C(OC1C[C@H]2CC[C@@H](C1)[N+]21CCCC1)C(O)(c1ccccc1)c1ccccc1 (some centres undefined) ... NO
CC[C@]1(O)C[C@H]2CN(CCc3c([nH]c4ccccc34)[C@@](C(=O)OC)(c3cc4c(cc3OC)N(C=O)[C@H]3[C@@](O)(C(=O)OC)[C@H](OC(C)=O)[C@]5(CC)C=CCN6CC[C@]43[C@@H]65)C2)C1 ... YES
CC(=O)Nc1ccc(O)cc1 ... NO
Clc1ccc2c(N3CCN(CCCN4CCN(c5ccnc6cc(Cl)ccc56)CC4)CC3)ccnc2c1 ... NO
CCC1=C(C)CN(C(=O)NCCc2ccc(S(=O)(=O)NC(=O)NC3CCC(C)CC3)cc2)C1=O (centres undefined) ... NO
CCCCCCCCCCCCCCCCCCCCCCO ... NO
N=C(N=C(N)N)N1CCOCC1 ... NO
Cc1ccc(NC(=O)c2ccc(CN3CCN(C)CC3)cc2)cc1Nc1nccc(-c2cccnc2)n1 ... NO
NC(=NCc1ccccc1)NC(=O)c1nc(Cl)c(N)nc1N ... NO
CC(C)c1nc(CN(C)C(=O)N[C@H](C(=O)N[C@@H](Cc2ccccc2)C[C@H](O)[C@H](Cc2ccccc2)NC(=O)OCc2cncs2)C(C)C)cs1 ... NO
CC(=O)NC[C@H]1CN(c2ccc(N3CCOCC3)c(F)c2)C(=O)O1 ... NO
S=c1nc[nH]c2nc[nH]c12 ... NO
O=C(NCC1CCCCN1)c1cc(OCC(F)(F)F)ccc1OCC(F)(F)F (centres undefined) ... NO
Cc1nc2n(c(=O)c1CCN1CCC(c3noc4cc(F)ccc34)CC1)CCCC2 ... NO
